All figures here come from ChEMBL document CHEMBL1134266.

study_target: Muscarinic acetylcholine receptor M3 (Homo sapiens)
Sequence (P20309 whole entry): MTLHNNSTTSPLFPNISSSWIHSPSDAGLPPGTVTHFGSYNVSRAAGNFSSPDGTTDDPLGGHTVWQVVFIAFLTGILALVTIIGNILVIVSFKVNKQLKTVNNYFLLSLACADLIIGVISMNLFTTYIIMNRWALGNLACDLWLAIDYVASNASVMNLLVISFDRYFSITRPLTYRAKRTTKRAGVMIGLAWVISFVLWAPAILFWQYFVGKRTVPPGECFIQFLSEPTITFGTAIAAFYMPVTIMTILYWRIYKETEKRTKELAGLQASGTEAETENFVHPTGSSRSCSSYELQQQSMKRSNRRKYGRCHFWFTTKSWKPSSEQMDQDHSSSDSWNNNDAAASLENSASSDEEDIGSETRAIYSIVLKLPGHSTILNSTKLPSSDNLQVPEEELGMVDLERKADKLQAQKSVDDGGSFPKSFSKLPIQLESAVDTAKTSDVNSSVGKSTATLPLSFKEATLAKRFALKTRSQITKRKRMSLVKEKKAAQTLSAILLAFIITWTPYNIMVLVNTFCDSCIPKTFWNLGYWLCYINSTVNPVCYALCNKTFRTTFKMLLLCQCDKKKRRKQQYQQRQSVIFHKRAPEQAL
Rule: Ki below 20 µM gives TRUE. Equal to or above 20 µM gives FALSE.

Consider the worked cases shown below.
CN(C)CCOC(=O)C1=C/C(=C\c2ccncc2)c2ccccc21
TRUE
CN(C)CCNC(=O)C1=C/C(=C\c2ccccn2)c2ccccc21
FALSE
CN(C)CCN(C)C(=O)C1=C/C(=C\c2cccnc2)c2ccccc21
FALSE
CN(C)CCC1=C/C(=C\c2cccnc2)c2ccccc21
FALSE
CN(C)CCC1=C/C(=C\c2ccccn2)c2ccccc21
FALSE

Please turn your attention to the following entry.
# input Identify whether the compound CN(C)CCOC(=O)C1=C/C(=C\c2ccccn2)c2ccccc21 records Ki below 20 µM.
# output TRUE

====

study_target: Muscarinic acetylcholine receptor M1 (Homo sapiens)
Sequence (P11229 whole entry): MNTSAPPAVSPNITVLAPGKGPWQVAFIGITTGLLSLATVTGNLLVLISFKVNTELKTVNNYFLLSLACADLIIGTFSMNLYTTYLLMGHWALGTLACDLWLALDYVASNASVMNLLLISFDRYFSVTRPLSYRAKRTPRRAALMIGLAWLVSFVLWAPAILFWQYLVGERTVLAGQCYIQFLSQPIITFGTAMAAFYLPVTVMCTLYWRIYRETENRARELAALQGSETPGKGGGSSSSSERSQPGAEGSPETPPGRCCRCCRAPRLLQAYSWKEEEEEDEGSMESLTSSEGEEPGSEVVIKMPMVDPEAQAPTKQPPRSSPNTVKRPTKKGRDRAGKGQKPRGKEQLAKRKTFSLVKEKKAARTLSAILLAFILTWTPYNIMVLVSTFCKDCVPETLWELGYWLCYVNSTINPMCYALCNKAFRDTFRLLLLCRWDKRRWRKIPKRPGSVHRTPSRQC
pKi: −log10 of the molar value.
Quick rule for you: pKi at 5 or higher means 1, lower means 0.

Consider the worked cases shown below.
CN(C)CCN(C)C(=O)C1=C/C(=C\c2ccccn2)c2ccccc21
0
CN(C)CCNC(=O)C1=C/C(=C\c2cccnc2)c2ccccc21
0
CN(C)CCNC(=O)C1=C/C(=C\c2ccccn2)c2ccccc21
0

# input hey, is pKi for this one >= 5? CN1CCN(C(=O)C2=C/C(=C\c3ccncc3)c3ccccc32)CC1
# output 0

# input hey, is pKi for this one >= 5? CN(C)CCNC(=O)C1=C/C(=C\c2ccncc2)c2ccccc21
# output 0

# input hey, is pKi for this one >= 5? CN(C)CCOC(=O)C1=C/C(=C\c2ccccn2)c2ccccc21
# output 1

# input hey, is pKi for this one >= 5? CN(C)CCN(C)C(=O)C1=C/C(=C\c2cccnc2)c2ccccc21
# output 0

# input hey, is pKi for this one >= 5? CC(C1=C(CCN(C)C)Cc2ccccc21)c1ccccn1 (stereo not drawn)
# output 1

# input hey, is pKi for this one >= 5? CC1OC(=O)[C@H]2C[C@H]3CCCC[C@@H]3[C@@H](/C=C/C3CCCC(C)N3C)[C@@H]12 (single isomer, unassigned) [HIMBACINE]
# output 1

# input hey, is pKi for this one >= 5? CN(C)CCC1=C/C(=C\c2cccnc2)c2ccccc21
# output 0

====

Here the recorded pKi is given for each entry.
study_target: Muscarinic acetylcholine receptor M4 (Homo sapiens, UniProt P08173)
assay_remarks: Affinity for Muscarinic acetylcholine receptor M4 expressed in CHO cells by [3H]NMS displacement.
Format: cell-based
Please express pKi as -log10 of the molar concentration.

CN(C)CCOC(=O)C1=C/C(=C\c2ccncc2)c2ccccc21
4.83

Record CN(C)CCOC(=O)C1=C/C(=C\c2cccnc2)c2ccccc21 . Reported pKi: 4.90

Record CN(C)CCN(C)C(=O)C1=C/C(=C\c2cccnc2)c2ccccc21 . Reported pKi: 4.26

Record CN(C)CCOC(=O)C1=C/C(=C\c2ccccn2)c2ccccc21 . Reported pKi: 4.91

Record CN(C)CCNC(=O)C1=C/C(=C\c2ccccn2)c2ccccc21 . Reported pKi: 4.47

Record CN(C)CCN(C)C(=O)C1=C/C(=C\c2ccccn2)c2ccccc21 . Reported pKi: 4.33

Record CC(C1=C(CCN(C)C)Cc2ccccc21)c1ccccn1 (configuration not stated) . Reported pKi: 6.39

Record CN(C)CCC1=C/C(=C\c2cccnc2)c2ccccc21 . Reported pKi: 4.65

Record CN(C)CCNC(=O)C1=C/C(=C\c2cccnc2)c2ccccc21 . Reported pKi: 4.67

====

study_target: Muscarinic acetylcholine receptor M1 (Homo sapiens)
Sequence (P11229 whole entry): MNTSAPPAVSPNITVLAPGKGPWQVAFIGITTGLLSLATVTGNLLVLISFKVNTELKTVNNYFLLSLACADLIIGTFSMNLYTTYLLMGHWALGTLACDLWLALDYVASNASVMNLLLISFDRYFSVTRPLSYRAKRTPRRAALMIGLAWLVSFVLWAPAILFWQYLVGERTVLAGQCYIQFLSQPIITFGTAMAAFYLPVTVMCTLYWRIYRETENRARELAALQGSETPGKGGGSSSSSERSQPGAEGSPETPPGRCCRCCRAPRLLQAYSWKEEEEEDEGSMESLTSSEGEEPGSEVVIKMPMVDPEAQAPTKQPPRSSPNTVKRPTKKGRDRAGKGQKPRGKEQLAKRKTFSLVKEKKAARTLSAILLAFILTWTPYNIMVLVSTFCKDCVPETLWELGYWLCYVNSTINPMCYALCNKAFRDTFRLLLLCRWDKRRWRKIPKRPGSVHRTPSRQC
Here the recorded pKi is given for each entry.
Please express pKi as -log10 of the molar concentration.

CN(C)CCOC(=O)C1=C/C(=C\c2cccnc2)c2ccccc21
4.94
CN(C)CCOC(=O)C1=C/C(=C\c2ccncc2)c2ccccc21
4.92

Record CN(C)CCC1=C/C(=C\c2ccccn2)c2ccccc21 . Reported pKi: 5.02

====

Here the recorded pKi is given for each entry.
study_target: UniProt P08173
Sequence (P08173 whole entry): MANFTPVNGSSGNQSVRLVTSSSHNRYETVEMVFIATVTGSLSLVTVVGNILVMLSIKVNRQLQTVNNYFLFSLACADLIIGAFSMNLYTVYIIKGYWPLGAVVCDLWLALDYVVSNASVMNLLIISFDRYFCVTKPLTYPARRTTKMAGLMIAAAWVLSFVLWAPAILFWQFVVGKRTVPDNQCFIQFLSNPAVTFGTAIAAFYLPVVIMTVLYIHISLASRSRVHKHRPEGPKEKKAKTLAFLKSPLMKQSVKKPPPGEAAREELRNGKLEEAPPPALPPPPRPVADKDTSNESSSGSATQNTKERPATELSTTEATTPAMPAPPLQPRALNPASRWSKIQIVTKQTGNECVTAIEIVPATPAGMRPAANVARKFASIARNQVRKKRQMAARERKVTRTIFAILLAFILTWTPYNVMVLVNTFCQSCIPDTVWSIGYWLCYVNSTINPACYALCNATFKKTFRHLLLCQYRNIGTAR
Please express pKi as -log10 of the molar concentration.

CN(C)CCNC(=O)C1=C/C(=C\c2ccncc2)c2ccccc21
4.61
CN(C)CCC1=C/C(=C\c2ccccn2)c2ccccc21
4.92

Now let's try a different one.
Record CN1CCN(C(=O)C2=C/C(=C\c3ccncc3)c3ccccc32)CC1 . Reported pKi: 4.05
